tested on: Fibroblast; experiment: Multiplex assay against human fibroblast; format: toxicity, cell-based; settings: 24 h, 1 µM, compound concentration 1 uM, replicate 1
QUANTITY: Population Healthy Nuclei (%)

[
  {
    "COMPOUND": "O=C(c1cc2c(cc1F)OC(c1ccc(F)cc1)(c1ccc(Cl)cc1Cl)O2)N1CCOCC1 (centres undefined)",
    "RECORDED_NUMBER": 61
  },
  {
    "COMPOUND": "Cc1ccccc1C(c1ccccc1C)N1C2CCC1CC(O)(c1ccccc1)C2 (centres undefined)",
    "RECORDED_NUMBER": 55
  },
  {
    "COMPOUND": "CNC(=O)Nc1ccc(-c2nc(N3CC4CCC(C3)O4)c3cnn(C4CCC5(CC4)OCCO5)c3n2)cc1",
    "RECORDED_NUMBER": 33
  },
  {
    "COMPOUND": "CC(C)NC(=O)N1CC[C@H](NC2=Nc3cc(F)ccc3N(CC(F)F)c3ccc(Cl)cc32)C1",
    "RECORDED_NUMBER": 40
  },
  {
    "COMPOUND": "CC1=C(C(=O)Nc2cc3cn[nH]c3cc2F)C(c2ccc(C(F)(F)F)cc2)CC(=O)N1 (centres undefined)",
    "RECORDED_NUMBER": 56
  },
  {
    "COMPOUND": "CCc1ccc(OCc2ccccc2C(=O)Nc2ccc3nc(C)cc(N)c3c2)cc1.Cl",
    "RECORDED_NUMBER": 22
  },
  {
    "COMPOUND": "CC(C)CC(=O)Nc1[nH]nc2c1CN(C(=O)C1CCN(C)CC1)C2(C)C",
    "RECORDED_NUMBER": 65
  },
  {
    "COMPOUND": "CNC(=O)Nc1ccc2c(c1)[C@@]1(CC2)OC(=O)N(CC(=O)N(Cc2ccc(F)cc2)[C@@H](C)C(F)(F)F)C1=O",
    "RECORDED_NUMBER": 59
  },
  {
    "COMPOUND": "C[C@]12CC[C@@H]3c4ccc(O)cc4CC[C@H]3[C@@H]1CC[C@@H]2O",
    "RECORDED_NUMBER": 50
  }
]

---

We begin with a simple list: items and their reported Population Healthy Nuclei (%).
tested on: U2OS; experiment: Multiplex assay against U2OS; type: toxicity, cell-based; conditions: human, 12 h, 1 µM, compound concentration 1 uM, replicate 2
QUANTITY: Population Healthy Nuclei (%)

[
  {
    "MOL": "CC(C)NC(=O)N1CC[C@H](NC2=Nc3cc(F)ccc3N(CC(F)F)c3ccc(Cl)cc32)C1",
    "QUANTITY": "Population Healthy Nuclei (%)",
    "RESULT": "89%"
  },
  {
    "MOL": "CC(C)(C)NC[C@H](O)COc1nsnc1N1CCOCC1",
    "QUANTITY": "Population Healthy Nuclei (%)",
    "RESULT": "88%"
  },
  {
    "MOL": "C=CC(=O)Nc1cccc(Sc2nc(Nc3ccc(N4CCN(C)CC4)cc3)ncc2Cl)c1",
    "QUANTITY": "Population Healthy Nuclei (%)",
    "RESULT": "11%"
  },
  {
    "MOL": "CC(C)c1noc(N2CCC(COc3ccc(-c4ccc(S(C)(=O)=O)cc4)nc3)CC2)n1",
    "QUANTITY": "Population Healthy Nuclei (%)",
    "RESULT": "85%"
  },
  {
    "MOL": "O=c1[nH]c2ccccc2n1C1CCN(Cc2ccc(-c3[nH]c4cc5ncnc5cc4nc3-c3ccccc3)cc2)CC1",
    "QUANTITY": "Population Healthy Nuclei (%)",
    "RESULT": "85%"
  },
  {
    "MOL": "COc1ccc(-c2ccc3ncc4c(c3c2)n(-c2ccc(N3CCNCC3)c(C(F)(F)F)c2)c(=O)n4C)cn1.O=C(O)/C=C\\C(=O)O",
    "QUANTITY": "Population Healthy Nuclei (%)",
    "RESULT": "45%"
  },
  {
    "MOL": "C=CC(=O)Nc1ccc2[nH]c(=O)n(C3CCN(Cc4ccc(-c5nc6cc[nH]c(=O)c6cc5-c5ccccc5)cc4)CC3)c2c1",
    "QUANTITY": "Population Healthy Nuclei (%)",
    "RESULT": "87%"
  },
  {
    "MOL": "CN1CCN(Cc2ccc(Nc3ncc(Cl)c(Nc4ccccc4S(=O)(=O)N(C)C)n3)cc2)CC1",
    "QUANTITY": "Population Healthy Nuclei (%)",
    "RESULT": "83%"
  }
]

---

tested on: Fibroblast; assay: Multiplex assay against human fibroblast; assay type: toxicity, cell-based; settings: 12 h, 10 µM, compound concentration 10 uM, replicate 2
QUANTITY: Population Mitochondria Different-Phenotype (%)

[
  {
    "MOLECULE": "COc1ccc(-c2ccc3ncc4c(c3c2)n(-c2ccc(N3CCNCC3)c(C(F)(F)F)c2)c(=O)n4C)cn1.O=C(O)/C=C\\C(=O)O [BGT-226]",
    "RESULT": "32%"
  },
  {
    "MOLECULE": "CNC(=O)Nc1ccc(-c2nc(N3CC4CCC(C3)O4)c3cnn(C4CCC5(CC4)OCCO5)c3n2)cc1",
    "RESULT": "75%"
  },
  {
    "MOLECULE": "CC1=C(C(=O)Nc2cc3cn[nH]c3cc2F)C(c2ccc(C(F)(F)F)cc2)CC(=O)N1 (stereo unspecified)",
    "RESULT": "12%"
  },
  {
    "MOLECULE": "C=CC(=O)Nc1ccc2[nH]c(=O)n(C3CCN(Cc4ccc(-c5nc6cc[nH]c(=O)c6cc5-c5ccccc5)cc4)CC3)c2c1 [Borussertib]",
    "RESULT": "18%"
  },
  {
    "MOLECULE": "CC(C)NC(=O)N1CC[C@H](NC2=Nc3cc(F)ccc3N(CC(F)F)c3ccc(Cl)cc32)C1",
    "RESULT": "63%"
  },
  {
    "MOLECULE": "CC(C)c1noc(N2CCC(COc3ccc(-c4ccc(S(C)(=O)=O)cc4)nc3)CC2)n1 [GSK-1292263]",
    "RESULT": "10%"
  },
  {
    "MOLECULE": "Cc1c[nH]c2nccc(Oc3c(F)cc(Nc4cc(Cl)nc(N)n4)cc3F)c12 [BAY-549]",
    "RESULT": "10%"
  },
  {
    "MOLECULE": "C[C@]12CC[C@@H]3c4ccc(O)cc4CC[C@H]3[C@@H]1CC[C@@H]2O [ESTRADIOL]",
    "RESULT": "12%"
  },
  {
    "MOLECULE": "Cc1ccc2c(c1)c1c(n2CCc2ccc(C)nc2)CCN(C)C1 [LATREPIRDINE]",
    "RESULT": "100%"
  },
  {
    "MOLECULE": "O=c1cc(N2CCOCC2)oc2c(-c3cccc4c3sc3ccccc34)cccc12",
    "RESULT": "90%"
  },
  {
    "MOLECULE": "CCCSc1nc(N[C@@H]2C[C@H]2c2ccc(F)c(F)c2)c2nnn([C@@H]3C[C@H](OCCO)[C@@H](O)[C@H]3O)c2n1 [TICAGRELOR]",
    "RESULT": "98%"
  },
  {
    "MOLECULE": "C=CC(=O)Nc1cccc(Sc2nc(Nc3ccc(N4CCN(C)CC4)cc3)ncc2Cl)c1",
    "RESULT": "7%"
  },
  {
    "MOLECULE": "CNC(=O)Nc1ccc2c(c1)[C@@]1(CC2)OC(=O)N(CC(=O)N(Cc2ccc(F)cc2)[C@@H](C)C(F)(F)F)C1=O [A-486]",
    "RESULT": "10%"
  },
  {
    "MOLECULE": "CC(C)CC(=O)Nc1[nH]nc2c1CN(C(=O)C1CCN(C)CC1)C2(C)C [PHA-793887]",
    "RESULT": "40%"
  },
  {
    "MOLECULE": "O=C(c1cc2c(cc1F)OC(c1ccc(F)cc1)(c1ccc(Cl)cc1Cl)O2)N1CCOCC1 (stereo unspecified)",
    "RESULT": "96%"
  },
  {
    "MOLECULE": "COc1ccccc1CN[C@H]1C2CCN(CC2)[C@H]1C(c1ccccc1)c1ccccc1 [CP-96345]",
    "RESULT": "45%"
  }
]

---

Population Mitotic Cells (%) overview
tested on: Fibroblast; assay: Multiplex assay against human fibroblast; type: toxicity, cell-based; settings: 24 h, 10 µM, compound concentration 10 uM, replicate 1
QUANTITY: Population Mitotic Cells (%)

[
  {
    "COMPOUND": "CN1CCN(Cc2ccc(Nc3ncc(Cl)c(Nc4ccccc4S(=O)(=O)N(C)C)n3)cc2)CC1",
    "ASSAY_SYSTEM": "Fibroblast",
    "RECORDED_NUMBER": 57
  },
  {
    "COMPOUND": "COc1cc2ncn(-c3cc(OCc4ccccc4C(F)(F)F)c(C(N)=O)s3)c2cc1OC [GW843682X]",
    "ASSAY_SYSTEM": "Fibroblast",
    "RECORDED_NUMBER": 25
  },
  {
    "COMPOUND": "CCc1ccc(OCc2ccccc2C(=O)Nc2ccc3nc(C)cc(N)c3c2)cc1.Cl",
    "ASSAY_SYSTEM": "Fibroblast",
    "RECORDED_NUMBER": 60
  },
  {
    "COMPOUND": "CCCSc1nc(N[C@@H]2C[C@H]2c2ccc(F)c(F)c2)c2nnn([C@@H]3C[C@H](OCCO)[C@@H](O)[C@H]3O)c2n1",
    "ASSAY_SYSTEM": "Fibroblast",
    "RECORDED_NUMBER": 44
  }
]
